- System: MIA PaCa-2
- assay_protocol: Cytotoxicity against doxorubicin-sensitive human MIA PaCa-2 cells assessed as inhibition of cell growth incubated for 30 mins by crystal violet staining assay
- experimental_setup: MIA PaCa-2, 0.5 h
measured_quantity: IC50 (µM)
State just the number; it will be interpreted in µM.

>>> df
                              line_notation  experimental_result
0  COc1cccc2c1C(=O)c1c(O)c3c(c(O)c1C2=O)C[C@@](O)(C(=O)CO)C[C@@H]3O[C@H]1C[C@H](N)[C@H](O)[C@H](C)O1                    4

Here's the next entry for you.
# IC50 of COc1cccc2c1C(=O)c1c(O)c3c(c(O)c1C2=O)C[C@@](O)(C(=O)CO)C[C@@H]3O[C@H]1C[C@@H]2NCO[C@@H]2[C@H](C)O1 = 51

* * *

- Test system: MIA PaCa-2
- assay_protocol: Synergistic cytotoxicity against doxorubicin-sensitive human MIA PaCa-2 cells assessed as inhibition of cell growth incubated for 90 mins in presence of epirubicin by crystal violet staining assay
- experimental_setup: MIA PaCa-2, 1.5 h
measured_quantity: IC50
Field: value (include unit after the number)

# IC50 of C=O = 500 nM

* * *

- assay_protocol: Half life of compound
- Assay type: physicochemical
measured_quantity: half-life
Field: value (include unit after the number)

# half-life of COc1cccc2c1C(=O)c1c(O)c3c(c(O)c1C2=O)C[C@@](O)(C(=O)CO)C[C@@H]3O[C@H]1C[C@H](NCNC(=O)c2ccccc2O)[C@H](O)[C@H](C)O1 = 57 min

* * *

- Test system: NCI/ADR-RES
- assay_protocol: Cytotoxicity against doxorubicin-resistant human NCI/ADR-RES cells assessed as inhibition of cell growth incubated for 90 mins by crystal violet staining assay
- Assay type: functional, cell-based
- experimental_setup: 1.5 h, read-out: pIC50 (converted)
measured_quantity: IC50 (nM)
State just the number; it will be interpreted in nM.

>>> print(df.to_string())
                                   compound          tgt  measured_quantity  experimental_result
0  COc1cccc2c1C(=O)c1c(O)c3c(c(O)c1C2=O)C[C@@](O)(C(=O)CO)C[C@@H]3O[C@H]1C[C@H](N)[C@@H](O)[C@H](C)O1 [EPIRUBICIN]  NCI/ADR-RES               IC50                  631
1                                       C=O  NCI/ADR-RES               IC50               501000
2  COc1cccc2c1C(=O)c1c(O)c3c(c(O)c1C2=O)C[C@@](O)(C(=O)CO)C[C@@H]3O[C@H]1C[C@H](N)[C@H](O)[C@H](C)O1  NCI/ADR-RES               IC50                  617

# IC50 of COc1cccc2c1C(=O)c1c(O)c3c(c(O)c1C2=O)C[C@@](O)(C(=O)CO)C[C@@H]3O[C@H]1C[C@@H]2NCO[C@@H]2[C@H](C)O1 = 50.1
